Source listed as PubChem BioAssay.

TESTED TARGET: Neurogenic locus notch homolog protein 3 (Homo sapiens)
TEST DESCRIPTION: small molecules binding NOTCH3 protein – biochemical, 635/667 nm fluorescence, primary screen (AID 1096)
CONDITIONS USED: small-molecule microarray, 635 nm fluorescence, higher = more signal
Measured composite z-score, listed per entry for reference.
Just the number.

Reference set (2 entries):
COMPOUND: COc1ccccc1CN1C(=O)c2ccccc2[C@@]2(Cc3ccccc3N(CCCN(C)C)C2=O)[C@@H]1c1ccc(CO)cc1
ATTRIBUTE MEASURED: composite z-score
DATA VALUE: 0.0593
//
COMPOUND: CCCCC(=C=CC[C@@H](O)c1cccc(OCCO)c1)C[C@@H](O)c1ccccn1
ATTRIBUTE MEASURED: composite z-score
DATA VALUE: 1.01

Qu. Answer with composite z-score of O=C1OCCC/C=C\[C@H]2OC34C=CCN(c5ccc6ccccc6c5)C(=O)[C@H]3N(CCCCCO)C(=O)[C@@H]4C12 (stereo not given in full) measured for Neurogenic locus notch homolog protein 3 (Homo sapiens).
Ans. -0.359

Qu. Provide Neurogenic locus notch homolog protein 3 (Homo sapiens) composite z-score reading for CO[C@H]1O[C@H](CO)[C@@H](OC(=O)Nc2ccc(Oc3ccccc3)cc2)[C@H](OC(=O)Nc2ccc3c(c2)OCO3)[C@@H]1OC(=O)Nc1ccc2c(c1)OCO2 .
Ans. 1.07

Qu. Give composite z-score only, for COCCOC(=O)N1C(=O)[C@@]2(c3cc(C#CC4(O)CCCCCC4)ccc31)[C@H](c1ccccc1OCCO)N1[C@H](c3ccccc3)[C@H](c3ccccc3)OC(=O)[C@H]1[C@@H]2C(=O)N1CCc2cc(OC)c(OC)cc2C1 , using Neurogenic locus notch homolog protein 3 (Homo sapiens) data.
Ans. 1.05

====

TEST DESCRIPTION: small molecules captured by biotinylated probe aFGF10 – biochemical, small-molecule microarray, fluorescence 635/667, stem cell growth factor project, primary screen (AID 1071);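 further: score merges 667 nm spot intensity and signal to noise from triplicate slides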
CONDITIONS USED: higher = more signal
# composite z-score values compiled below
Keep it simple and answer with nothing but the number.

Record excerpt, results attached:
COMPOUND: CC1CC/C=C\[C@H]2OC34C=CCN(Cn5nnc6ccccc65)C(=O)[C@H]3N(CCCCCO)C(=O)[C@@H]4C2C(=O)O1 (some centres undefined)
composite z-score: -0.499

COMPOUND: C=CCOC(=O)[C@H]1[C@@H]2C(=O)O[C@@H](c3ccccc3)[C@@H](c3ccccc3)N2[C@@H](c2ccc(OCCOC(=O)[C@H]3C[C@H]4C(=O)N[C@@H](CCCCN(C)C)C(=O)N4[C@H]3c3cccc(OCCO)c3)cc2)[C@]12C(=O)Nc1ccc(I)cc12
composite z-score: 0.527

COMPOUND: COc1ccc([Si](C)(C)[C@H]2[C@H](CC(=O)N3CCC[C@H]3CO)O[C@@]3(C(=O)N(Cc4cccc(N5CCOC5=O)c4)c4ccccc43)[C@@H]2C)cc1
composite z-score: 0.141

COMPOUND: CCCC1(C(=O)OC)C=C2C(=C(c3ccccc3)C(=O)C2C)CN1 (centres undefined)
composite z-score: -0.121

COMPOUND: O=C1OCCC=C[C@H]2OC34C=CCN(CCN5CCOCC5)C(=O)[C@H]3N(CCCCCO)C(=O)[C@@H]4C12 (some centres undefined)
composite z-score: 0.0681

COMPOUND: C#CCNCc1ccccc1
composite z-score: 0.227

COMPOUND: CCN(CC)c1ccc(N2CC=CC34O[C@@H]5/C=C\CCC(C)OC(=O)C5[C@H]3C(=O)N(CCCCCO)[C@@H]4C2=O)cc1 (some centres undefined)
composite z-score: -0.497

COMPOUND: C[C@H]1C2[C@H](Cc3ccccc3)NC(=O)[C@]23C(=O)NCC(=O)N2CCC[C@H]2C(=O)NC/C=C/CCC/C=C/C3[C@@H]2O[C@]12C (some centres undefined)
composite z-score: -0.261

Qu. For the compound CCCCN1CC=CC23O[C@@H]4C=CCCOC(=O)C4[C@H]2C(=O)N(CCCCCO)[C@@H]3C1=O (some centres undefined) , report composite z-score.
Ans. -0.0632

Qu. Consider the compound C=C(CCCC)/C(=C/C[C@H](OC(=O)c1ccncc1)c1ccc(OCCO)cc1)c1cc(C(=O)OC)ccc1OC . State its measured composite z-score.
Ans. 1.15

Qu. Tell us which composite z-score value is on record for COc1ccc([Si](C)(C)[C@@H]2[C@@H](CC(=O)N3Cc4ccccc4C[C@H]3CO)O[C@]3(C(=O)N(Cc4cccc(N5CCC5=O)c4)c4ccccc43)[C@H]2C)cc1
Ans. 0.507

====

TEST DESCRIPTION: budding yeast growth changes without added modifier – OD600, strain BY4716, 24 h, basal condition, primary screen (AID 1173)
CONDITIONS USED: S. cerevisiae BY4716 growth, OD600, 24 h; higher = more signal, called active from +8 up or from −8 down
ATTRIBUTE MEASURED: z-score
When you answer, write just the number.

// solved cases for z-score follow
COMPOUND: OCC1C=C(/C=C/c2ccccc2)CN1Cc1ccccc1Br (stereo not given)
z-score: -9.92
//
COMPOUND: C=CC[C@]1(C(=O)NCc2ccccc2)N=C(c2ccc(OCCCO)cc2)O[C@H]1c1ccccc1CN=[N+]=[N-]
z-score: -0.0802
//
COMPOUND: O=C1[C@H]2C=C(I)[C@H](C[C@@H]2OCCCCO)[C@@]12CO2
z-score: -1.19
//
COMPOUND: COCCOC(=O)N1C(=O)[C@@]2(c3cc(C#CC4(O)CCCCCC4)ccc31)[C@H](C(=O)Nc1nc3ccccc3s1)[C@H]1C(=O)O[C@H](c3ccccc3)[C@H](c3ccccc3)N1[C@@H]2c1ccccc1OCCO
z-score: 0.504
//
COMPOUND: COCC(=C=CC[C@H](O)c1cccc(OCCO)c1)CCO
z-score: 0.161

Qu. Name the recorded z-score of the compound listed here: COc1cc2c(cc1O)C(c1cccs1)N(Cc1cccc(OC(F)(F)F)c1)CC2 (stereo not given)
Ans. -3.07

Qu. Indicate its recorded z-score; the compound in question is CN1C(=O)C2C=CC(C(O)c3ccccc3)N(N3CCCCC3)C2C1=O (stereo not given)
Ans. 0.429

Qu. Hello, please tell me recorded z-score for this one: O=C(O)C1N=C(c2ccc(OCCCO)cc2)N(c2ccccc2)O1 (stereo not given)
Ans. 0.0427

====

Tested on: Plasmodium falciparum Sir2 (PF13_0152, Sir2A)
TEST DESCRIPTION: Plasmodium falciparum Sir2A binding compounds – biochemical, small-molecule microarray, 635 nm fluorescence, primary screen (AID 1098);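 further: score merges spot fluorescence intensity with its signal-to-noise ratio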
CONDITIONS USED: fluorescence 635 nm, higher = more signal
Listed here: items and their measured composite z-score.
Answer field: number only, no words.

Example results:
MOLECULE: CCCCN1CC=CC23O[C@@H]4/C=C\CCCOC(=O)C4[C@H]2C(=O)N(CCCCCO)[C@@H]3C1=O (some centres not stated)
composite z-score: 1.29
//
MOLECULE: O=C1OCCC=C[C@H]2OC34C=CCN(CCN5CCOCC5)C(=O)[C@H]3N(CCCCCO)C(=O)[C@@H]4C12 (some centres not stated)
composite z-score: 1.44
//
MOLECULE: C=C(/C(=C/C[C@H](OC(C)=O)c1ccc(OCCO)cc1)c1cc(C(=O)OC)ccc1OC)C(C)C
composite z-score: 1.53
//
MOLECULE: CCCCC(=C=CC[C@@H](O)c1ccc(CO)o1)CCO
composite z-score: 0.175
//
MOLECULE: CCCC(=O)N(CCc1c[nH]c2ccccc12)[C@@H]1CC(C(=O)NCCO)=C[C@H](Oc2c(I)cc(CO)cc2OC)[C@H]1O
composite z-score: -0.575
//
MOLECULE: CC1CC/C=C\[C@H]2OC34C=CCN(c5ccc6ccccc6c5)C(=O)[C@H]3N(CCO)C(=O)[C@@H]4C2C(=O)O1 (some centres not stated)
composite z-score: 1.76

Qu. Determine its reported composite z-score: COCCOC(=O)N1C(=O)[C@@]2(c3ccccc31)[C@H](c1ccc(OCCO)cc1)N1[C@H](c3ccccc3)[C@H](c3ccccc3)OC(=O)[C@H]1[C@@H]2C(=O)N1CCc2cc(OC)c(OC)cc2C1
Ans. 1.53

====

TEST DESCRIPTION: resazurin metabolic signal in A549 cells – cell-based, resazurin fluorescence, 24 h, PK04 Diversity Set, profiling panel (AID 1171); further: test concentration not given here
CONDITIONS USED: A549 viability, higher = more signal, called active from +8 up or from −8 down
Please assign 0 whenever z-score is at or above 0.02, and 1 whenever it is below.

Worked examples follow.
COMPOUND: O=C(CS)NCCCCCNC(=O)[C@@H]1C[C@@H]2C(=O)NCC(=O)N2[C@@H]1c1cccc(OCCO)c1
CAT: 1
--
COMPOUND: O=C1[C@H]2C=C(Br)[C@H](C[C@@H]2OCCCCCCO)[C@@]12CO2
CAT: 1
--
COMPOUND: CCOc1cc(C(O)C2C=CC3C(=O)N(c4ccccc4)C(=O)C3N2Nc2ccc(C(C)C)cc2)ccc1O (configuration not stated)
CAT: 1
--
COMPOUND: CO[C@H]1O[C@H](CO)[C@@H](OC(=O)Nc2ccccc2-c2ccccc2)[C@H](OC(=O)Nc2ccccc2-c2ccccc2)[C@@H]1OC(=O)Nc1ccccc1-c1ccccc1
CAT: 1
--
COMPOUND: COc1ccc([C@H]2C[C@H]3C(Br)=C[C@@]2(CO)C(=O)[C@]32CO2)cc1
CAT: 0
--
COMPOUND: CCOC(=O)C[C@H]1[C@H](OC(=O)c2ccc(-c3ccccc3)cc2)[C@@H](NC(=O)c2ccccc2)c2cc(OCCCO)ccc2N1C(=O)Cc1ccc(OC)cc1
CAT: 1
--
COMPOUND: CCCC1(C(=O)OC)C=C2C(=C(c3ccccc3)C(=O)C2C)CN1 (configuration not stated)
CAT: 1
--
COMPOUND: CC(C)CN1C(=O)[C@@]2(c3ccc([N+](=O)[O-])cc3)CC(=O)N(C3CCCCC3)[C@@H]2c2ccc(CO)cc21
CAT: 1

Qu. Could you please tell me whether z-score recorded for COc1ccc(-c2cc3c(c(Cc4ccccc4)n2)[Si](C(C)C)(C(C)C)OC3)cn1 is less than 0.02?
Ans. 0

Qu. Lab note: confirm whether the reported z-score for this compound is below 0.02, equality not counting. compound: CCC(CC)C(O)C1C=CC2C(=O)N(c3ccccc3)C(=O)C2N1Nc1ccccc1 (configuration not stated)
Ans. 0
